- TARGET OR TEST SYSTEM: yeast HSP90 (Saccharomyces cerevisiae)
- Construct: made in house; host or cells: E. coli
- EXPERIMENTAL PROTOCOL: Malachite green HSP90 ATPase assay
- Format: biochemical
- EXPERIMENTAL CONTEXT: HSP90 ATPase inhibition IC50, malachite green assay, 1 mM ATP; ±SD if n=3–5
pIC50: −log10 of the molar value.

{"ENTRY SMILES": "CCc1cc(-c2n[nH]c(C)c2-c2ccc3c(c2)OCCO3)c(O)cc1O", "TARGET OR TEST SYSTEM": "yeast HSP90 (Saccharomyces cerevisiae)", "pIC50": 5.04}

====

- TARGET OR TEST SYSTEM: yeast HSP90 (Saccharomyces cerevisiae)
- Construct: made in house; host or cells: E. coli
- EXPERIMENTAL PROTOCOL: Malachite green HSP90 ATPase assay
- Format: biochemical
- EXPERIMENTAL CONTEXT: activity range, ATPase assay; read-out: ATPase IC50
Form field: IC50 (one value per entry).

{"MOLECULE": "Oc1cc(O)c(-c2n[nH]cc2-c2ccsc2)cc1Cl", "TARGET OR TEST SYSTEM": "yeast HSP90 (Saccharomyces cerevisiae)", "IC50": "< 50 µM"}
{"MOLECULE": "Cc1[nH]nc(-c2ccc(C(=O)NCC3CCCO3)cc2)c1-c1ccc2c(c1)OCCO2 (stereo not drawn)", "TARGET OR TEST SYSTEM": "yeast HSP90 (Saccharomyces cerevisiae)", "IC50": "> 50 µM"}
{"MOLECULE": "Cc1[nH]nc(-c2ccc(C(=O)Nc3cccnc3)cc2)c1-c1ccc2c(c1)OCCO2", "TARGET OR TEST SYSTEM": "yeast HSP90 (Saccharomyces cerevisiae)", "IC50": "> 50 µM"}
{"MOLECULE": "Cn1cc(-c2ccc(Br)cc2)c(-c2cc(Cl)c(O)cc2O)n1", "TARGET OR TEST SYSTEM": "yeast HSP90 (Saccharomyces cerevisiae)", "IC50": "> 50 µM"}
{"MOLECULE": "COc1ccc(-c2c(-c3ccc(CO)cc3O)n[nH]c2C)cc1", "TARGET OR TEST SYSTEM": "yeast HSP90 (Saccharomyces cerevisiae)", "IC50": "> 50 µM"}
{"MOLECULE": "CNC(=O)c1ccc(-c2c[nH]nc2-c2cc(Cl)c(O)cc2O)cc1", "TARGET OR TEST SYSTEM": "yeast HSP90 (Saccharomyces cerevisiae)", "IC50": "< 50 µM"}
{"MOLECULE": "COc1ccc(-c2c(-c3cc(Cl)c(O)cc3O)n[nH]c2C(=O)NCc2ccccc2)cc1", "TARGET OR TEST SYSTEM": "yeast HSP90 (Saccharomyces cerevisiae)", "IC50": "< 50 µM"}
{"MOLECULE": "Cc1[nH]nc(-c2ccc(C(N)=O)cc2)c1-c1ccc2c(c1)OCCO2", "TARGET OR TEST SYSTEM": "yeast HSP90 (Saccharomyces cerevisiae)", "IC50": "> 50 µM"}
{"MOLECULE": "COc1ccc(-c2c(-c3cc(Cl)c(O)cc3O)n[nH]c2Br)cc1", "TARGET OR TEST SYSTEM": "yeast HSP90 (Saccharomyces cerevisiae)", "IC50": "< 50 µM"}

====

Form field: IC50 (one value per entry).
- TARGET OR TEST SYSTEM: yeast HSP90 (Saccharomyces cerevisiae, UniProt P02829)
- Construct: made in house; host or cells: E. coli
- Sequence (P02829 whole entry, looked up): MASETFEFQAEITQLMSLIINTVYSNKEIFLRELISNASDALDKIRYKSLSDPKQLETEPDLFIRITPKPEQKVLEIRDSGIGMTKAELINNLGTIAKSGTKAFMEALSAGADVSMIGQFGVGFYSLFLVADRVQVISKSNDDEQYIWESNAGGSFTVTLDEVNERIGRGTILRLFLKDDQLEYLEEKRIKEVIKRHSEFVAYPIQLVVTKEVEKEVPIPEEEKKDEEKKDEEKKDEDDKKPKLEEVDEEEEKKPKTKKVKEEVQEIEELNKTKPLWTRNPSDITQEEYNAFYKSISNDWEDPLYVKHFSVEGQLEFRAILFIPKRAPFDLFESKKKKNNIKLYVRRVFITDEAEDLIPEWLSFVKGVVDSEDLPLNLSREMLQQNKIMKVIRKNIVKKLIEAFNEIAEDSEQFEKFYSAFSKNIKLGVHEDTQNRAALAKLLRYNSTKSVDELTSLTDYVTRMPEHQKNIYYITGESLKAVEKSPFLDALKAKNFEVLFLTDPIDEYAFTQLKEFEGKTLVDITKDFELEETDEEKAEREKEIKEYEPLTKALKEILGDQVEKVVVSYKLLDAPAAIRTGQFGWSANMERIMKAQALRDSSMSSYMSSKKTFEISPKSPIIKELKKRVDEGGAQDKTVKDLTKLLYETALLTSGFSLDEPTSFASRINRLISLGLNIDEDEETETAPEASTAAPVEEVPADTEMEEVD
- EXPERIMENTAL PROTOCOL: Malachite green HSP90 ATPase assay
- Type: biochemical
- EXPERIMENTAL CONTEXT: activity class; read-out: Hsp90 IC50
READOUT: IC50

{"COMPOUND": "Oc1cc(O)c(-c2n[nH]cc2-c2ccc(Br)cc2)cc1Cl [Example 57]", "REPORTED VALUE": "< 10 µM"}
{"COMPOUND": "CCc1cc(-c2n[nH]cc2-c2ccc([N+](=O)[O-])cc2)c(O)cc1OC [Example 80]", "REPORTED VALUE": "10 to 100 µM"}
{"COMPOUND": "CCCc1cc(-c2n[nH]cc2-c2ccccc2)c(O)cc1OC [Example 126]", "REPORTED VALUE": "> 10 µM"}
{"COMPOUND": "CCc1cc(-c2n[nH]cc2-c2cnn(-c3ccccc3)c2)c(O)cc1O [Example 145]", "REPORTED VALUE": "> 10 µM"}
{"COMPOUND": "Oc1cc(O)c(-c2n[nH]cc2-c2ccc(-c3ccc(F)cc3)cc2)cc1Cl [Example 62]", "REPORTED VALUE": "< 10 µM"}
{"COMPOUND": "Cc1nc(-c2c[nH]nc2-c2cc(C)c(O)cc2O)cs1 [Example 90]", "REPORTED VALUE": "10 to 100 µM"}
{"COMPOUND": "Oc1ccc(-c2n[nH]c(C(F)(F)F)c2-c2ccc3c(c2)OCCO3)c(O)c1 [Example 142]", "REPORTED VALUE": "> 10 µM"}
{"COMPOUND": "CCc1cc(-c2n[nH]cc2-c2cscn2)c(O)cc1O [Example 91]", "REPORTED VALUE": "10 to 100 µM"}
{"COMPOUND": "CCCc1cc(-c2n[nH]c(C)c2-c2nc3ccccc3s2)c(O)cc1O [Example 100]", "REPORTED VALUE": "10 to 100 µM"}

====

Form field: IC50 (one value per entry).
- TARGET OR TEST SYSTEM: yeast HSP90 (Saccharomyces cerevisiae)
- Construct: made in house; host or cells: E. coli
- EXPERIMENTAL PROTOCOL: Malachite green HSP90 ATPase assay
- Format: biochemical
- EXPERIMENTAL CONTEXT: activity class; read-out: Hsp90 IC50

{"ENTRY SMILES": "COc1ccc(-c2c(-c3cc(CCc4ccccc4)c(O)cc3O)n[nH]c2C)cc1", "TARGET OR TEST SYSTEM": "yeast HSP90 (Saccharomyces cerevisiae)", "IC50": "< 10 µM"}
{"ENTRY SMILES": "CCc1cc(-c2n[nH]cc2-c2nc(C)cs2)c(O)cc1OCc1cccc(C)c1", "TARGET OR TEST SYSTEM": "yeast HSP90 (Saccharomyces cerevisiae)", "IC50": "> 10 µM"}
{"ENTRY SMILES": "Cc1[nH]nc(-c2cc(Cl)c(O)cc2O)c1-c1ccc(Br)cc1", "TARGET OR TEST SYSTEM": "yeast HSP90 (Saccharomyces cerevisiae)", "IC50": "< 10 µM"}
{"ENTRY SMILES": "O=C(O)CCCOc1ccc(-c2c[nH]nc2-c2cc(Cl)c(O)cc2O)cc1", "TARGET OR TEST SYSTEM": "yeast HSP90 (Saccharomyces cerevisiae)", "IC50": "< 10 µM"}
{"ENTRY SMILES": "Oc1cc(O)c(-c2n[nH]cc2-c2cccc(Br)c2)cc1Cl", "TARGET OR TEST SYSTEM": "yeast HSP90 (Saccharomyces cerevisiae)", "IC50": "< 10 µM"}

====

Form field: pIC50 (one value per entry).
- TARGET OR TEST SYSTEM: yeast HSP90 (Saccharomyces cerevisiae)
- Construct: made in house; host or cells: E. coli
- EXPERIMENTAL PROTOCOL: Malachite green HSP90 ATPase assay
- Type: biochemical
- EXPERIMENTAL CONTEXT: activity class; read-out: Hsp90 IC50
pIC50: −log10 of the molar value.
READOUT: pIC50

{"COMPOUND": "CCc1cc(-c2n[nH]c(C(=O)O)c2-c2ncc(C)s2)c(O)cc1O", "REPORTED VALUE": "4.00 to 5.00"}
{"COMPOUND": "COc1ccc(-c2ccc(-c3c[nH]nc3-c3cc(Cl)c(O)cc3O)cc2)cc1OC", "REPORTED VALUE": "> 5.00"}
{"COMPOUND": "Cc1[nH]nc(-c2cc(Cl)c(O)cc2O)c1-c1ccccc1Br", "REPORTED VALUE": "4.00 to 5.00"}
{"COMPOUND": "Cc1[nH]nc(-c2cc(Cl)c(O)cc2O)c1-c1ccccc1 [Example 127]", "REPORTED VALUE": "< 5.00"}
{"COMPOUND": "COc1cccc(-c2c[nH]nc2-c2cc(Cl)c(O)cc2O)c1", "REPORTED VALUE": "> 5.00"}
{"COMPOUND": "CCOc1cccc(-c2ccc(-c3c[nH]nc3-c3cc(Cl)c(O)cc3O)cc2)c1", "REPORTED VALUE": "> 5.00"}
{"COMPOUND": "CCc1cc(-c2n[nH]cc2-c2ccccc2)c(O)cc1O", "REPORTED VALUE": "> 5.00"}
{"COMPOUND": "Cc1[nH]nc(-c2ccc(OCC(=O)O)cc2O)c1-c1ccc(F)cc1", "REPORTED VALUE": "< 5.00"}
{"COMPOUND": "Cc1[nH]nc(-c2cc(F)ccc2O)c1-c1ccc2c(c1)OCCO2", "REPORTED VALUE": "> 5.00"}
